- experimentalTarget: 348 GPCRs (Homo sapiens)
- Sequence (P28566 whole entry): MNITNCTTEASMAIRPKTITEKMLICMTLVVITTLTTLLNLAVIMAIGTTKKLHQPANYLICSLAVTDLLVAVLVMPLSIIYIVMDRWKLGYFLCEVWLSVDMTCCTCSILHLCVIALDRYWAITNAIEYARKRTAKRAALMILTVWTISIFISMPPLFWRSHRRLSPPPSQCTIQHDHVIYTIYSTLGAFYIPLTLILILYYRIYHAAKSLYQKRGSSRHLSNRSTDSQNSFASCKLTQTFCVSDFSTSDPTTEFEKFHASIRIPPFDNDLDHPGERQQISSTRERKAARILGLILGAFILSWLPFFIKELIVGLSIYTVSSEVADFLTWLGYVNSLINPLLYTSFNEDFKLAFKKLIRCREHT
- assayOverview: TGFα-shedding assay-based GPCR screening with chimeric Gα subunit proteins
- Format: cell-based
- conditionParameters: 5-HT1E (5-hydroxytryptamine receptor 1E); 10µM, Favipiravir 100μM
measurementType: % GPCR activation compared to TPA (%)
# number only, unit % dropped from output

Below, 4 compounds whose answers are already recorded.
CC(C)OC(=O)[C@H](C)N[P@](=O)(OC[C@H]1O[C@@H](n2ccc(=O)[nH]c2=O)[C@](C)(F)[C@@H]1O)Oc1ccccc1 = -1.207
CC(C)C(=O)OC[C@H]1O[C@@H](n2ccc(NO)nc2=O)[C@H](O)[C@@H]1O = -0.994
NC(=O)c1nc(F)cnc1O [favipiravir, 6-fluoro-3-hydroxy-2-pyrazinecarboxamide] = 0.5554
CCC(CC)COC(=O)[C@H](C)N[P@](=O)(OC[C@H]1O[C@@](C#N)(c2ccc3c(N)ncnn23)[C@H](O)[C@@H]1O)Oc1ccccc1 = -0.07183

Identify measured % GPCR activation compared to TPA obtained with 348 GPCRs (Homo sapiens) for `N#C[C@@]1(c2ccc3c(N)ncnn23)O[C@H](CO)[C@@H](O)[C@H]1O` .
-1.385
